Test: In vitro microsomal stability, human
Type: in vitro ADME
Conditions: Human Microsome, same batch, 60 min
Microsomal stability, % remaining for assorted molecules
Please reply with the bare figure in % and do not write the unit itself.

Consider the following illustrative entries.
# Molecule, Attribute measured, Unit of measure, Value
records = [
    ("CC(C)(C)C[C@H]1N[C@@H](C(=O)NCC[C@H](O)CN2CCCC2)[C@H](c2cccc(Cl)c2)[C@@]12C(=O)Nc1cc(Cl)c(F)cc12", "Microsomal stability, % remaining", "%", 53.78),
    ("CC(C)(C)C[C@H]1N[C@@H](C(=O)NCCC(C)(O)CO)[C@H](c2cccc(Cl)c2)[C@@]12C(=O)Nc1cc(Cl)c(F)cc12 (some centres unmarked)", "Microsomal stability, % remaining", "%", 51.45),
    ("CC(C)(C)C[C@H]1N[C@@H](C(=O)NCC[C@H](O)CN2CC[C@@H](O)C2)[C@H](c2cccc(Cl)c2)[C@@]12C(=O)Nc1cc(Cl)c(F)cc12", "Microsomal stability, % remaining", "%", 35.28),
]

I have this molecule here, "CC(C)(C)C[C@H]1N[C@@H](C(=O)NCC[C@H](O)CNC(C)(C)C)[C@H](c2cccc(Cl)c2)[C@@]12C(=O)Nc1cc(Cl)c(F)cc12" , and I need its recorded Microsomal stability, % remaining. 41.42

I have this molecule here, CC(O)C(O)CCNC(=O)[C@@H]1N[C@H](CC(C)(C)C)[C@]2(C(=O)Nc3cc(Cl)c(F)cc32)[C@H]1c1cccc(Cl)c1 (some centres unmarked) , and I need its recorded Microsomal stability, % remaining. 8.56

---

Target: recombinant human His-tagged MDM2 protein (residues 1-118) (Homo sapiens (Human))
Experiment: Fluorescence-polarization MDM2 binding assay
Settings: Table 19A; FP binding assay; read-out: MDM2 IC50
pIC50: −log10 of the molar value.
Attribute measured: pIC50

# Compound, pIC50
measured = [
    ("CC(C)(C)C[C@H]1N[C@@H](C(=O)NCC2CC(O)C(O)C2)[C@H](c2cccc(Cl)c2)[C@@]12C(=O)Nc1cc(Cl)c(F)cc12 (stereo partly drawn) [MI-519-37]", "> 6.00"),
]

I have this compound here, CC(C)(C)C[C@H]1N[C@@H](C(=O)NCC2CC(O)C(O)C2)[C@H](c2cccc(Cl)c2)[C@@]12C(=O)Nc1cc(Cl)c(F)cc12 (stereo partly drawn) [MI-519-36] , and I need its recorded pIC50. > 6.00

---

Experiment: In vitro microsomal stability, rat
Format: in vitro ADME
Settings: Table 16, 30 min
Assign labels as follows, please: 1 for % of compound remaining when incubated in rat liver microsomes below 30%; 0 for % of compound remaining when incubated in rat liver microsomes equal to or exceeding 30%.

Below are worked cases with known answers.
# Compound, Classification
records = [
    ("CN1CCC(CCNC(=O)C2NC(CC(C)(C)C)C3(C(=O)Nc4cc(Cl)ccc43)C2c2cccc(Cl)c2F)CC1 (stereo not shown)", 0),
    ("CCN1CCN(CCNC(=O)C2NC(CC(C)(C)C)C3(C(=O)Nc4cc(Cl)ccc43)C2c2cccc(Cl)c2F)CC1 (stereo not shown)", 0),
    ("CC(C)(C)CC1NC(C(=O)NCCN2CCOCC2)C(c2cccc(Cl)c2F)C12C(=O)Nc1cc(Cl)ccc12 (stereo not shown)", 1),
    ("CC(C)(C)CC1NC(C(=O)NCCN2CCCC2)C(c2cccc(Cl)c2F)C12C(=O)Nc1cc(Cl)ccc12 (stereo not shown)", 0),
    ("CN1CCN(CCNC(=O)C2NC(CC(C)(C)C)C3(C(=O)Nc4cc(Cl)ccc43)C2c2cccc(Cl)c2F)CC1 (stereo not shown)", 0),
]

Turning to the following compound.
Say whether its % of compound remaining when incubated in rat liver microsomes is strictly beneath 30%. Entry: "CC(C)N1CCN(CCNC(=O)[C@@H]2N[C@H](CC(C)(C)C)[C@]3(C(=O)Nc4cc(Cl)ccc43)[C@H]2c2cccc(Cl)c2F)CC1" 0

---

Assay: In vitro microsomal stability, rat
Format: in vitro ADME
Conditions: Rat Microsome, same batch, 0 min
Microsomal stability, % remaining for assorted compounds
Please reply with the bare figure in % and do not write the unit itself.

Consider the following illustrative entries.
# Compound, Attribute measured, Value
records = [
    ("CC(C)(C)C[C@H]1N[C@@H](C(=O)NCC[C@H](O)CN2CC[C@@H](O)C2)[C@H](c2cccc(Cl)c2)[C@@]12C(=O)Nc1cc(Cl)c(F)cc12 [MI-519-29]", "Microsomal stability, % remaining", 100.00),
    ("CC(C)(C)C[C@H]1N[C@@H](C(=O)NCC[C@H](O)CN2CCCC2)[C@H](c2cccc(Cl)c2)[C@@]12C(=O)Nc1cc(Cl)c(F)cc12 [MI-519-28]", "Microsomal stability, % remaining", 100.00),
    ("CC(O)C(O)CCNC(=O)[C@@H]1N[C@H](CC(C)(C)C)[C@]2(C(=O)Nc3cc(Cl)c(F)cc32)[C@H]1c1cccc(Cl)c1 (some centres unmarked) [MI-519-31]", "Microsomal stability, % remaining", 100.00),
    ("CC(C)(C)C[C@H]1N[C@@H](C(=O)NCCC(C)(O)CO)[C@H](c2cccc(Cl)c2)[C@@]12C(=O)Nc1cc(Cl)c(F)cc12 (some centres unmarked) [MI-758]", "Microsomal stability, % remaining", 100.00),
]

Then there is this compound:
I have this compound here, CC(C)(C)C[C@H]1N[C@@H](C(=O)NCC[C@H](O)CNC(C)(C)C)[C@H](c2cccc(Cl)c2)[C@@]12C(=O)Nc1cc(Cl)c(F)cc12 [MI-519-24] , and I need its recorded Microsomal stability, % remaining. 100.00

---

Assay: In vitro microsomal stability, rat
Assay type: in vitro ADME
Conditions: Rat Microsome, same batch, 15 min
Attribute measured: Microsomal stability, % remaining (%)
Please reply with the bare figure in % and do not write the unit itself.

# Molecule, Value
records = [
    ("CC(C)(C)C[C@H]1N[C@@H](C(=O)NCCC(C)(O)CO)[C@H](c2cccc(Cl)c2)[C@@]12C(=O)Nc1cc(Cl)c(F)cc12 (some centres unmarked)", 82.50),
    ("CC(C)(C)C[C@H]1N[C@@H](C(=O)NCC[C@H](O)CN2CC[C@@H](O)C2)[C@H](c2cccc(Cl)c2)[C@@]12C(=O)Nc1cc(Cl)c(F)cc12", 82.81),
    ("CC(O)C(O)CCNC(=O)[C@@H]1N[C@H](CC(C)(C)C)[C@]2(C(=O)Nc3cc(Cl)c(F)cc32)[C@H]1c1cccc(Cl)c1 (some centres unmarked)", 57.57),
    ("CC(C)(C)C[C@H]1N[C@@H](C(=O)NCC[C@H](O)CNC(C)(C)C)[C@H](c2cccc(Cl)c2)[C@@]12C(=O)Nc1cc(Cl)c(F)cc12", 75.72),
]

Then there is this molecule:
I have this molecule here, "CC(C)(C)C[C@H]1N[C@@H](C(=O)NCC[C@H](O)CN2CCCC2)[C@H](c2cccc(Cl)c2)[C@@]12C(=O)Nc1cc(Cl)c(F)cc12" , and I need its recorded Microsomal stability, % remaining. 86.13

---

pIC50 for assorted compounds
Biological target: recombinant human His-tagged MDM2 protein (residues 1-118) (Homo sapiens (Human), UniProt Q00987)
Sequence (Q00987 1-118): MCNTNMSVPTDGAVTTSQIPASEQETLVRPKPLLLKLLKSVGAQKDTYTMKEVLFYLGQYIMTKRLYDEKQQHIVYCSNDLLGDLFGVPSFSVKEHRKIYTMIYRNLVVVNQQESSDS
Test: Fluorescence-polarization MDM2 binding assay;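 note: fluorescence polarization read after three hours of incubation in potassium phosphate buffer containing bovine gamma globulin and Triton X-100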
Conditions: Table 19B; read-out: Binding affinities to MDM2 protein as determined by FP based assay IC50
pIC50: −log10 of the molar value.

# Smiles text, pIC50
data = [
    ("CC(C)(C)C[C@@H]1[C@]2(C(=O)Nc3cc(Cl)c(F)cc32)[C@@H](c2cccc(Cl)c2)[C@H](C(=O)NCC[C@H](O)CO)[N+]1(C)C", "< 5.00"),
]

I have this compound here, "O=C(NCC[C@H](O)CO)[C@@H]1N[C@H](CCc2ccccc2)[C@]2(C(=O)Nc3cc(Cl)c(F)cc32)[C@H]1c1cccc(Cl)c1" , and I need its recorded pIC50. < 5.00

I have this compound here, "CCC[C@H]1N[C@@H](C(=O)NCC[C@H](O)CO)[C@H](c2cccc(Cl)c2)[C@@]12C(=O)Nc1cc(Cl)c(F)cc12" , and I need its recorded pIC50. < 6.00

---

% of compound remaining when incubated in rat liver microsomes for assorted molecules
Experiment: In vitro microsomal stability, rat
Type: in vitro ADME
Details: Table 16, 4 min
Please reply with the bare figure in % and do not write the unit itself.

# Molecule, Value
records = [
    ("CN1CCN(CCNC(=O)C2NC(CC(C)(C)C)C3(C(=O)Nc4cc(Cl)ccc43)C2c2cccc(Cl)c2F)CC1 (stereo not drawn)", 88.4),
    ("CC(C)(C)CC1NC(C(=O)NCCN2CCOCC2)C(c2cccc(Cl)c2F)C12C(=O)Nc1cc(Cl)ccc12 (stereo not drawn)", 76),
]

I have this molecule here, CC(C)(C)CC1NC(C(=O)NCCN2CCCC2)C(c2cccc(Cl)c2F)C12C(=O)Nc1cc(Cl)ccc12 (stereo not drawn) , and I need its recorded % of compound remaining when incubated in rat liver microsomes. 95.1
